Kindly supply the reported %Inh values for the records listed here.
- Tested on: WNK4
- Test parameters: concentration: 1 μM, replicates: in singlicate; n = 1;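 also: KINOMEscan kinase panel screen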
State just the number; it will be interpreted in %.

# return recorded %Inh for input Cc1cc(-c2ccnc(Nc3cccc(C#N)c3)n2)cc(C)c1O [GSK1440913]
26

Look up and report measured %Inh for this entry: COc1cccc(-c2nc(-c3ccccc3)[nH]c2-c2ccncc2)c1 [SB-610250]
29

Give recorded %Inh. Cc1cccc(Nc2nc(NCCN)ncc2C(N)=O)c1 [GSK1292139]
15

----------
- Tested on: PRKCI
- Test parameters: concentration: 1 μM, replicates: in singlicate; n = 1
Experimental readout: %Inh (%)
Hi! Could you send only the number? It should be in %, unit omitted.

Name the recorded %Inh of the item CC(C)c1nc(-c2ccc(F)c(NS(=O)(=O)c3c(F)cccc3F)c2)c(-c2ccnc(Nc3ccc(N4CCOCC4)nc3)n2)s1 in your answer.
39

Provide one value: measured %Inh of Cc1ccccc1CC(=O)N1CCc2cc(-c3cn(C)c4ncnc(N)c34)ccc21
22

Dear colleague, please send me the reported %Inh for Cc1ccc(NC(=O)c2ccc(Cl)c(Cl)c2)cc1-c1ccc(C(=O)Nc2ccncc2)cc1 when you can.
0

For the molecule Fc1cc(Cl)ccc1Nc1ccnc2cc(-c3ccc(CN4CCOCC4)o3)ccc12 , give its measured %Inh value.
22

Could you please provide reported %Inh for CN1CCN(Cc2ccc(NC(=O)Nc3ccc(N(C)c4ccnc(Nc5ccc(CS(C)(=O)=O)cc5)n4)cc3)cc2)CC1.Cl ? Thanks!
23

Return value of %Inh for input Nc1cccc(-c2ccc3c(N)n[nH]c3c2)c1 , no commentary.
0

Please list %Inh recorded for the molecule CN(c1ccc2c(c1)nc(NCc1ccccc1)n2C)c1ccnc(Nc2ccc(CS(C)(=O)=O)cc2)n1.Cl
0

Identify measured %Inh corresponding to O=C(Nc1n[nH]c2nc(-c3ccccc3)ccc12)C1CC1
27

----------
- Tested on: DYRK1A
- Test parameters: concentration: 1 μM, replicates: in singlicate; n = 1
Experimental readout: %Inh (%)
# unit: % | format: bare number

Give %Inh for Cl.O=C(Nc1ccc(Oc2ccc3[nH]c(NC(=O)c4ccco4)nc3c2)cc1)Nc1cc(C(F)(F)F)ccc1F
13

Assign %Inh to the following record: Cc1ccc(Nc2ccnc(Nc3ccc(C)c(F)c3)n2)cc1O.Cl
20

Report %Inh, nothing else, for this compound: COc1cccc(CC(=O)N2CCc3cc(-c4cn(C)c5ncnc(N)c45)ccc32)c1
6

Return reported %Inh. Input compound: CCn1cnc2c(NCc3ccccc3)ncnc21
0

Return reported %Inh. Input compound: Cl.N#CCc1ccc(Nc2nccc(Nc3ccc(Oc4ccccc4)cc3)n2)cc1
19

Supply measured %Inh of CN(c1ccc(F)c(NC(=O)c2cccc(OC(C)(C)C#N)c2Cl)c1)c1ccc2nc(NC(=O)C3CC3)sc2n1 in your reply.
0

Recall and state the measured %Inh for O=C(Nc1n[nH]c2nc(-c3ccccc3O)ccc12)C1CC1 .
9

Query %Inh for COc1cc(Nc2nccc(N3CCC(NS(=O)(=O)c4ccc(NC(C)=O)cc4)CC3)n2)cc(OC)c1OC
25

----------
- Test system: IRAK4
- Test parameters: concentration: 1 μM, replicates: in singlicate; n = 1
Lab note: anything with %Inh at or over 7% counts as class 1; the rest go in class 0.

Evaluate O=C(Nc1n[nH]c2nc(-c3cccc(O)c3)ccc12)C1CC1 [SB-711805] : %Inh at minimum 7%?
class 0

Given CN1CCN(Cc2ccc(NC(=O)Nc3ccc(N(C)c4ccnc(Nc5ccc(CS(C)(=O)=O)cc5)n4)cc3)cc2)CC1.Cl [GW827654] , state whether its %Inh is at least 7%.
class 1

Item Cl.O=C(Nc1ccc(Oc2ccc3[nH]c(NC(=O)c4ccco4)nc3c2)cc1)Nc1cc(C(F)(F)F)ccc1F [GW683134] with %Inh of 7% or above?
class 1

Given c1ccc(Oc2ccc(Nc3ccnc4cc(-c5ccc(CN6CCCCC6)o5)ccc34)cc2)nc1 [GW567143] , state whether its %Inh is at least 7%.
class 0

In plain terms: is recorded %Inh at least 7% for COC(=O)Nc1nc2ccc(Oc3ccc(CC(=O)Nc4cc(C(F)(F)F)ccc4F)cc3)cc2[nH]1 [GW680903] ?
class 1

Entry Cc1ccccc1CC(=O)N1CCc2cc(-c3cn(C)c4ncnc(N)c34)ccc21 [GSK2603346] : is its %Inh no less than 7%?
class 0

Check the entry CNc1nccc(-c2ccc3c(N)n[nH]c3c2)n1 [GSK2206003] : does %Inh equal or exceed 7%?
class 0

Quick check, %Inh >= 7%? Cc1nn2c(=O)cc(N3CCO[C@H](C)C3)nc2n1Cc1cccc(Cl)c1Cl [GSK2373693]
class 1

Please tell me: is the compound COC(=O)Nc1nc2cc(Oc3ccc(NC(=O)Nc4cccc(SC)c4)cc3)ccc2[nH]1.Cl [GW697999] at or over 7% in terms of %Inh?
class 1

Does Nc1ncnc2scc(-c3ccc(NC(=O)Cc4cc(F)ccc4F)cc3)c12.O=C(O)C(F)(F)F [SB-731254-M] have a reported %Inh of at least 7%?
class 0

API: above_or_equal(metric=%Inh, cutoff=7%) for item CN(C)c1ncnc2nc[nH]c12 [SKF-31736]
class 0

Evaluate COc1cc(Nc2nccc(N3CCC(NC(=O)Nc4ccc5c(c4)OCO5)C3)n2)cc(OC)c1OC (stereo not shown) [GSK1379766] : %Inh at minimum 7%?
class 1

Reported %Inh at or above 7%? O=C1NC(=O)C(c2ccccc2Cl)=C1Nc1cccc(Cl)c1 [SB-342409]
class 1

Decide: %Inh of CC(C)NCC(Cc1ccccc1)NC(=O)c1cc(Br)c(-c2ccnc3[nH]ccc23)s1.Cl.Cl (stereo not shown) [GSK1383281] >= 7%?
class 1

Could you tell me if the measured %Inh of Cc1ccc(O)cc1Nc1ccnc2cc(-c3ccc(CN4CCCCC4)o3)ccc12 [GW557777] reaches 7% or more?
class 0

----------
- Test system: PIK4CB
- Construct: gene PI4KB
- Test parameters: concentration: 1 μM, replicates: in singlicate; n = 1
For each record, write down the corresponding %Inh.
Give a bare numeral; the unit % is implied.

Quick one: give measured %Inh for CC(C)(C)c1ccc(C(=O)Nc2cn3cc(-n4ccnc4)ccc3n2)cc1
2

Query %Inh for N#CC1(c2cccc(C(=O)Nc3cccc(Oc4ccc5nc(NC(=O)C6CC6)sc5n4)c3)c2)CC1
0

Give the measured %Inh for Cc1ccc(O)cc1Nc1ccnc2cc(-c3ccc(CN4CCCCC4)o3)ccc12
0

State its %Inh: CCNC(=O)/C=C/c1n[nH]c2cc(Sc3ccccc3C(=O)NC)ccc12
0

Determine from records and report %Inh for Cc1nn2c(=O)cc(N3CCO[C@H](C)C3)nc2n1Cc1cccc(Cl)c1Cl
11

Indicate its recorded %Inh; the compound in question is Cc1cc(-c2ccnc(Nc3cccc(C#N)c3)n2)cc(C)c1O
97

Please report %Inh for the following compound: Cn1cc(-c2cnc(N)c3c(-c4ccc5c(c4)CCN5C(=O)Cc4ccccc4)csc23)cn1
100

Respond only with %Inh recorded for COc1ccc(C)c(Nc2ccnc(Nc3ccc(-c4cnc[nH]4)cc3)n2)c1.Cl
58

Output %Inh of CC(=O)Nc1cn2nc(Oc3cccc(NC(=O)c4cccc(C(F)(F)F)c4)c3)ccc2n1
0

----------
Give measured %Inh for each item. Keep answers brief.
- Test system: MUSK
- Test parameters: concentration: 1 μM, replicates: in singlicate; n = 1
Please reply with the bare figure in % and do not write the unit itself.

Dear colleague, please send me the reported %Inh for O=C(O)C(F)(F)F.O=c1[nH]ccc2nc(N[C@@H]3CCNC3)nc(Nc3ccc4c(c3)S(=O)(=O)CC4)c12 [GSK2181306] when you can.
0

Give a short answer stating reported %Inh for Cc1cccc(Nc2nc(N[C@H]3CCCC[C@H]3N)ncc2C(N)=O)c1.Cl [GSK986310] .
27

Report measured %Inh; entry is Cc1nn2c(=O)cc(N3CCO[C@H](C)C3)nc2n1Cc1cccc(Cl)c1Cl [GSK2373693]
14

State, in one line, measured %Inh of O=C(Nc1c(F)cccc1F)c1cc(C(=O)c2ccccc2F)c[nH]1 [GSK1326180]
0

Find the measured %Inh of CN(C)CCNS(=O)(=O)c1ccc(-c2ccnc3[nH]ccc23)cc1 [GSK977620] and report it.
23

Read off the recorded %Inh for COc1cc(Nc2ccnc3cc(-c4ccncc4)ccc23)cc(OC)c1OC.Cl [GW494610]
10

Given COc1cccc(CC(=O)N2CCc3cc(-c4cn(C)c5ncnc(N)c45)ccc32)c1 [GSK2608899] , respond with its %Inh.
27

Return value of %Inh for input CN(C)c1ncnc2nc[nH]c12 [SKF-31736] , no commentary.
14

For the compound Cc1ccc(NC(=O)c2cccc(N3CCCCC3)c2)cc1-c1ccc(C(=O)NCC2CC2)cc1 [GSK1917008] , give its reported %Inh.
1

Supply measured %Inh of CN(c1ccc2c(c1)nc(NCc1ccccc1)n2C)c1ccnc(Nc2ccc(CS(C)(=O)=O)cc2)n1.Cl [GW811603] in your reply.
36

Consider the compound Cl.O=C(Nc1ccc(Oc2ccc3[nH]c(NC(=O)c4ccco4)nc3c2)cc1)Nc1cc(C(F)(F)F)ccc1F [GW683134] . State its measured %Inh.
98.6

Hello, please tell me recorded %Inh for this one: Nc1ncc(-c2ccc3nccc(-c4ccncc4)c3c2)cc1S(=O)(=O)N1CCCCC1 [GSK1693850]
0

Provide only the value of recorded %Inh for CCOc1nccc(-c2c(-c3ccc(F)cc3)ncn2C2CCNCC2)n1 [SB-249175]
0

Please report the measured %Inh for O=C1NC(=O)C(c2ccccc2Cl)=C1Nc1cccc(Cl)c1 [SB-342409]
8

Give me measured %Inh, please, for this compound: CC(C)c1nc(-c2ccc(F)c(NS(=O)(=O)c3c(F)cccc3F)c2)c(-c2ccnc(Nc3ccc(N4CCOCC4)nc3)n2)s1 [GSK1804250]
8

Tell me %Inh reported for Nc1ncc(-c2cn[nH]c2)c2scc(-c3ccc4c(c3)CCN4C(=O)Cc3ccccc3)c12 [GSK2593067]
64

Tell us which %Inh value is on record for N#Cc1cnc2cc(-c3cnc(CNCCN4CCOCC4)s3)ccc2c1Nc1ccc(Oc2ccccc2)cc1 [GW664114]
3
